Assay: AUC in rat plasma at 25 mg/kg, po after 72 hrs
Type: ADME, organism-based
Parameters: time < 72 hr, dose 25 mg/kg, route oral
Endpoint: AUC at 72 h (µM·h)
Entry rule: numbers only, all in µM·h.

Sample `C/C=C/C[C@@H](C)[C@@H](O)[C@H]1C(=O)N[C@@H](CC)C(=O)N(C)[C@H](C)C(=O)N(C)[C@@H]([C@@H](C)CN2CCN(CCOC)CC2)C(=O)N[C@@H](C(C)C)C(=O)N(C)[C@@H](CC(C)C)C(=O)N[C@@H](C)C(=O)N[C@H](C)C(=O)N(C)[C@@H](CC(C)C)C(=O)N(C)[C@@H](CC(C)C)C(=O)N(C)[C@@H](C(C)C)C(=O)N1C` — what was its AUC at 72 h? 5.8

Let us examine a further case.
Field request: AUC at 72 h | item: `C/C=C/C[C@@H](C)[C@@H](O)[C@H]1C(=O)N[C@@H](CC)C(=O)N(C)[C@H](C)C(=O)N(CC)[C@@H](C(C)C)C(=O)N[C@@H](C(C)C)C(=O)N(C)[C@@H](CC(C)C)C(=O)N[C@@H](C)C(=O)N[C@H](C)C(=O)N(C)[C@@H](CC(C)C)C(=O)N(C)[C@@H](CC(C)C)C(=O)N(C)[C@@H](C(C)C)C(=O)N1C` 2.3

----------
Catalogue of pEC50 values
Test system: Hepatitis C virus
Test: Antiviral activity against HCV subtype 1b in human Huh7.5 cells expressing subgenomic HCV replicons and coexpressing luciferase reporter gene in presence of 40% human serum
Format: functional, cell-based, Hepacivirus hominis
Details: genotype 1b, Huh-7
Just so you know, pEC50 here is -log10 of the concentration in molar units; reply with that number alone.

Bench note: what pEC50 did `C/C=C/C[C@@H](C)[C@@H](O)[C@H]1C(=O)N[C@@H](CC)C(=O)N(C)CC(=O)N(C)[C@@H]([C@@H](C)CC)C(=O)N[C@@H](C(C)C)C(=O)N(C)[C@@H](CC(C)C)C(=O)N[C@@H](C)C(=O)N[C@H](C)C(=O)N(C)[C@@H](CC(C)C)C(=O)N(C)[C@@H](CC(C)C)C(=O)N(C)[C@@H](C(C)C)C(=O)N1C` show? 6.68

Name the recorded pEC50 for `C/C=C/C[C@@H](C)[C@@H](O)[C@H]1C(=O)N[C@@H](CC)C(=O)N(C)[C@H](C)C(=O)N(C)[C@@H]([C@@H](C)CN2CCN(CCOC)CC2)C(=O)N[C@@H](C(C)C)C(=O)N(C)[C@@H](CC(C)C)C(=O)N[C@@H](C)C(=O)N[C@H](C)C(=O)N(C)[C@@H](CC(C)C)C(=O)N(C)[C@@H](CC(C)C)C(=O)N(C)[C@@H](C(C)C)C(=O)N1C` . 7.38

Reported pEC50 for `C/C=C/C[C@@H](C)[C@@H](O)[C@H]1C(=O)N[C@@H](CC)C(=O)N(C)[C@H](C)C(=O)N(CC)[C@@H](C(C)C)C(=O)N[C@@H](C(C)C)C(=O)N(C)[C@@H](CC(C)C)C(=O)N[C@@H](C)C(=O)N[C@H](C)C(=O)N(C)[C@@H](CC(C)C)C(=O)N(C)[C@@H](CC(C)C)C(=O)N(C)[C@@H](C(C)C)C(=O)N1C` : what is it? 6.94

Let us examine a further case.
What value of pEC50 has been recorded for this entry: C/C=C/C[C@@H](C)[C@@H](O)[C@H]1C(=O)N[C@@H](CC)C(=O)N(C)C(SCCN(C)C)C(=O)N(C)[C@@H](CC(C)(C)O)C(=O)N[C@@H](C(C)C)C(=O)N(C)[C@@H](CC(C)C)C(=O)N[C@@H](C)C(=O)N[C@H](C)C(=O)N(C)[C@@H](CC(C)C)C(=O)N(C)[C@@H](CC(C)C)C(=O)N(C)[C@@H](C(C)C)C(=O)N1C (single isomer, unassigned) 6.72
